B1: SNX8 (parent)
chain: RMVPALPPKRMLGADREFIEARRR

variants of: B1; experiment: protein stability index of a GFP-peptide fusion (GPS, HEK-293T) (PSI 1-6); higher = more stable; settings: c terminus: a fixed tail appended;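 note: lentivirally expressed fusions sorted by FACS into six bins by GFP to DsRed ratio, PSI derived from sequencing read proportions per bin multiplied by bin number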
protein stability index values, listed per item
API note: the answer field is a bare number with no unit suffix.

Use the examples below as a reference point.
> print(dat)
   mutation.key           property.label  measurement
1          M11P  protein stability index         4.42
2          R24V  protein stability index         3.31
3           P8W  protein stability index         3.31
4          D15G  protein stability index         3.98

The recorded protein stability index for entry P7Q equals 3.5

The recorded protein stability index for entry R23K equals 4.02

The recorded protein stability index for entry M11A equals 3.86

The recorded protein stability index for entry M11G equals 4.28

The recorded protein stability index for entry K9Q equals 4.73
